assay target: Voltage-gated inwardly rectifying potassium channel KCNH2 (Homo sapiens, UniProt Q12809)
Sequence (Q12809 whole entry): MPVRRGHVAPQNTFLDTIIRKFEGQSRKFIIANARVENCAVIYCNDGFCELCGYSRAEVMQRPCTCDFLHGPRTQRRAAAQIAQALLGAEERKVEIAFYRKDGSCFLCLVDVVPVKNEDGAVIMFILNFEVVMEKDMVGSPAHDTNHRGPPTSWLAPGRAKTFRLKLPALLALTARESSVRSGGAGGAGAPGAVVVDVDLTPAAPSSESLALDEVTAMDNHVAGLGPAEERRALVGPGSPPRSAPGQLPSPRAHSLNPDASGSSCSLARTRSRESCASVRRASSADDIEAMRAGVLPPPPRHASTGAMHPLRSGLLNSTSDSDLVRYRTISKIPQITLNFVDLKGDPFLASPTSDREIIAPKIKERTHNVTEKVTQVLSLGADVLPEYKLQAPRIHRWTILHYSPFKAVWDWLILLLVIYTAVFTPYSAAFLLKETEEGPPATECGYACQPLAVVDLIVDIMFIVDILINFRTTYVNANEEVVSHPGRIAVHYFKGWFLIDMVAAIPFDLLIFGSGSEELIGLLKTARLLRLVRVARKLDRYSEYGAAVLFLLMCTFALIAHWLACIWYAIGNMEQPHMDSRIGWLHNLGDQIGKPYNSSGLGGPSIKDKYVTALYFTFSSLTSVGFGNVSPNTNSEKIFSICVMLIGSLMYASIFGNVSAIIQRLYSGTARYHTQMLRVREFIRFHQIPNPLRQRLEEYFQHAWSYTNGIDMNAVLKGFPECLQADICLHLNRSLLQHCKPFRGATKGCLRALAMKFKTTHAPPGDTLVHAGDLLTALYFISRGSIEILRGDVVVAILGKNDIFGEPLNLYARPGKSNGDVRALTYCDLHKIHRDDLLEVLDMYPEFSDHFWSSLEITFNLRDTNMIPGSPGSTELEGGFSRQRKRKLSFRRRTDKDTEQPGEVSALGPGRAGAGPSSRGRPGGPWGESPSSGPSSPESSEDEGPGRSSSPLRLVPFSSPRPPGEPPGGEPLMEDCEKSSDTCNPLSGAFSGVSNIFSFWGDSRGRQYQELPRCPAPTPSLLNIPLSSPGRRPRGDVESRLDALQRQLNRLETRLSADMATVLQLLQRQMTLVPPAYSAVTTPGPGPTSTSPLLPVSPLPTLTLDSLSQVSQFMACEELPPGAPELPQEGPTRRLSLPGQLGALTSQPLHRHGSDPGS
procedure summary: Inhibition of hERG expressed in HEK293 cells by patch clamp method
pIC50: −log10 of the molar value.
metric: pIC50

| molecule | endpoint result |
| --- | --- |
| CC(=O)Nc1nc(OCc2ccc(F)cc2)ccc1N | 3.35 |

---

procedure summary: AUC (0 to t) in male Sprague-Dawley rat at 30 mg/kg, IG measured upto 24 hrs by LC-MS/MS analysis
Format: ADME, organism-based
conditions used: in vivo, po
metric: AUC(0-t) at 24 h (ng·h/mL)

| molecule | metric | u | endpoint result |
| --- | --- | --- | --- |
| CC(=O)Nc1nc(OCc2ccc(F)cc2)ccc1N | AUC(0-t) at 24 h | ng·h/mL | 4110 |

---

procedure summary: Tmax in male Sprague-Dawley rat at 30 mg/kg, IG measured upto 24 hrs by LC-MS/MS analysis
Type: ADME, organism-based
conditions used: in vivo, po
metric: Tmax (min)

| molecule | u | endpoint result |
| --- | --- | --- |
| CC(=O)Nc1nc(OCc2ccc(F)cc2)ccc1N | min | 10.2 |

---

procedure summary: Half life in male Sprague-Dawley rat at 5 mg/kg, iv measured upto 24 hrs by LC-MS/MS analysis
Type: ADME, organism-based
conditions used: in vivo

| molecule | half-life |
| --- | --- |
| CC(=O)Nc1nc(OCc2ccc(F)cc2)ccc1N | 12.8 h |

---

assay target: Voltage-gated potassium channel, KQT; KCNQ2(Kv7.2)/KCNQ3(Kv7.3) (Homo sapiens, UniProt O43525+O43526)
Sequence (O43526 whole entry): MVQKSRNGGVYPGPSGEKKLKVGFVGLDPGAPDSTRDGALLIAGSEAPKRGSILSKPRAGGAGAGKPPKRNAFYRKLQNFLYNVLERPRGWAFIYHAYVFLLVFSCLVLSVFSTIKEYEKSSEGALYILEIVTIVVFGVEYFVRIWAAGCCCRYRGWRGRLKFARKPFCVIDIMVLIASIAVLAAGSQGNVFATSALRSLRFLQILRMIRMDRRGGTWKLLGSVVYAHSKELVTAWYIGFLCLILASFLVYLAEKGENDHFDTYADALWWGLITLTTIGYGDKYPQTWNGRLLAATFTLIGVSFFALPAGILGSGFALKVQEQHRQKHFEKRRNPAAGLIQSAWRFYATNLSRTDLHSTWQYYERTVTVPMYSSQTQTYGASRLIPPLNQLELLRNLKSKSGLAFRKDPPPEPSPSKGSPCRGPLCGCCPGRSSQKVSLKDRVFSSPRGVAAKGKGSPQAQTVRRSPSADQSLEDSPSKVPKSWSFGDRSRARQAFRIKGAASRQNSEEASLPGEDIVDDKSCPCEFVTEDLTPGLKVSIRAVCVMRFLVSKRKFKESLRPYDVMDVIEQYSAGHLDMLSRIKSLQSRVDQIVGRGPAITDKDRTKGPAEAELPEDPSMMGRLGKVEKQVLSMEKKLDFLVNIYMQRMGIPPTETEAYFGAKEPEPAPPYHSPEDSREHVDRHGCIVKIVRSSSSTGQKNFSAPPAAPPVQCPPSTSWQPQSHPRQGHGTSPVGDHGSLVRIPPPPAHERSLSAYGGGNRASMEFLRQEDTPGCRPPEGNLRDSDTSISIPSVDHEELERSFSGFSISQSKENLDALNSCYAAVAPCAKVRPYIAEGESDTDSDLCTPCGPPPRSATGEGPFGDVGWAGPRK
Sequence (O43525 whole entry): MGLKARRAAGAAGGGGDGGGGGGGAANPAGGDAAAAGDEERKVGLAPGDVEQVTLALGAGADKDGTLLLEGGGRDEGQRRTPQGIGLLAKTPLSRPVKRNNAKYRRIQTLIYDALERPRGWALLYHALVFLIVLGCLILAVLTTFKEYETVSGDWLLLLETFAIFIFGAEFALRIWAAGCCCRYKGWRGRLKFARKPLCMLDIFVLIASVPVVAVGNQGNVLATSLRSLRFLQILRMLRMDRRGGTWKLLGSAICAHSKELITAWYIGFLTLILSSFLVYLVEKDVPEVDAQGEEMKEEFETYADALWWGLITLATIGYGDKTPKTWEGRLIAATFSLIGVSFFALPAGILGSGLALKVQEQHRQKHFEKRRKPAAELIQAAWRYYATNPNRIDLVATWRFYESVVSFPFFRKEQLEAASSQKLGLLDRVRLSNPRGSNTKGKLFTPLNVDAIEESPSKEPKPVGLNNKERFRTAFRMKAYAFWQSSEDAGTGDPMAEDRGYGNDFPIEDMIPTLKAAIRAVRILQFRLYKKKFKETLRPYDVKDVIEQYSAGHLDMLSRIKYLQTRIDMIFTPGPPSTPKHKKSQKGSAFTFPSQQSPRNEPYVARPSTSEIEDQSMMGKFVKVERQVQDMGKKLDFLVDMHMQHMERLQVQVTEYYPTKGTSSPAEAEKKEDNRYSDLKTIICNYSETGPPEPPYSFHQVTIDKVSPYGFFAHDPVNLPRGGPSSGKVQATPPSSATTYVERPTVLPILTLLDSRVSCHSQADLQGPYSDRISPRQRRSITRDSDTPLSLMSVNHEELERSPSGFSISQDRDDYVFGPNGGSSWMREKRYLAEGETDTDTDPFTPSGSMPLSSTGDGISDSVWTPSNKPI
procedure summary: Agonist activity at human KCNQ2/3 transfected in human HEK293 cells incubated for 30 mins by fluorimetric assay
pEC50: −log10 of the molar value.
metric: pEC50

| compound | endpoint result |
| --- | --- |
| CC(=O)Nc1nc(OCc2ccc(Cl)c(Cl)c2)ccc1N | 5.00 |
| CC(=O)Nc1nc(OC(C)c2ccc(F)cc2)ccc1N (configuration not stated) | 4.72 |
| CC(=O)Nc1nc(OCc2ccc(-c3ccccc3)cc2)ccc1N | 3.88 |
| CC(=O)Nc1nc(OCc2cccc3ccccc23)ccc1N | 3.66 |
| CC(=O)Nc1nc(OCCc2ccc(F)cc2)ccc1N | 5.03 |
| CCOC(=O)Nc1nc(OCc2ccc(F)cc2)ccc1N | 4.92 |
| Nc1ccc(OCc2ccc(F)cc2)nc1NC(=O)C1CCCCC1 | 3.79 |
| CC(=O)Nc1nc(OCc2ccc(F)cc2)ccc1N | 5.99 |
| COc1cccc(COc2ccc(N)c(NC(C)=O)n2)c1 | 4.52 |
| CC(C)C(=O)Nc1nc(OCc2ccc(F)cc2)ccc1N | 4.74 |
| CC(=O)Nc1nc(OCc2ccc3ccccc3c2)ccc1N | 3.72 |
| CC(=O)Nc1nc(OCc2ccc(C(F)(F)F)cc2)ccc1N | 5.05 |

---

procedure summary: Clearance in male Sprague-Dawley rat at 5 mg/kg, iv measured upto 24 hrs by LC-MS/MS analysis
Format: ADME, organism-based
conditions used: in vivo
metric: clearance (mL/min/kg)

| molecule | metric | endpoint result |
| --- | --- | --- |
| CC(=O)Nc1nc(OCc2ccc(F)cc2)ccc1N | clearance | 56.7 |

---

procedure summary: Acute toxicity in mouse assessed as lethal dose at iv administration measured after 7 days
Format: organism-based
conditions used: in vivo, time 7 day

| molecule | LD50 at 168 h |
| --- | --- |
| CC(=O)Nc1nc(OCc2ccc(F)cc2)ccc1N | 267 mg/kg |
